# Test system: RAW264.7
# protocol_summary: Anti-inflammatory activity in mouse RAW264.7 cells assessed as inhibition of LPS-induced NO production preincubated for 30 mins followed by LPS stimulation and measured after 24 hrs by Griess reagent based colorimetric method
# Format: functional, cell-based
For each of the molecules below, state its IC50.
One number for each entry, in µM.

Example cases with answers are listed next.
| molecule | value_type | measured_value |
| --- | --- | --- |
| COC(=O)/C(C)=C1/C(=O)[C@H](O)[C@]2(C)C3=C(C[C@@H]4[C@]5(OC(=O)C6=C5C[C@H]5[C@](O)(COC(=O)/C(C)=C/COC(=O)CCC(=O)OC6)[C@H]6C[C@H]6[C@]45C)[C@H]31)[C@H]1C[C@H]12 | IC50 | 25.5 |
| CC(=N)NCCCC[C@H](N)C(=O)O [L-NIL] | IC50 | 7 |
| COC(=O)CCC(=O)OCC1=C2C[C@H]3[C@](O)(COC(=O)/C=C(\C)CO)[C@H]4C[C@H]4[C@]3(C)[C@@H]3CC4=C5[C@H](/C(=C(\C)C(=O)OC)C(=O)[C@H](O)[C@@]5(C)[C@@H]5C[C@H]45)[C@]23OC1=O | IC50 | 23.1 |

# evaluate next
Prompt line: Notebook entry, RAW264.7 assay: IC50 of "COC(=O)/C(C)=C1\C(=O)[C@H](O)[C@]2(C)C3=C(C[C@@H]4[C@]5(OC(=O)C(CO)=C5C[C@H]5[C@H](COC(C)=O)[C@H]6C[C@H]6[C@]45C)[C@H]31)[C@H]1C[C@H]12" = ?
Response line: 3.7

====

# protocol_summary: Cytotoxicity against mouse RAW264.7 cells assessed as cellular metabolic activity at 50 uM after 48 hrs by MTT assay relative to control
# Type: ADME, cell-based
# stated_conditions: read-out: Activity
Just a reminder that ties go to Condition not met: only viability at 48 h, 50 µM strictly below 70% counts as Condition met.

Examples from the recorded data:
| molecule | assigned_label |
| --- | --- |
| CC1=C2C3=C4[C@](C)([C@@H]5C[C@@H]5[C@@]4(O)C[C@@H]4[C@]35OC(=O)C3=C5C[C@H]5[C@](O)(COC(=O)/C=C(\C)COC(=O)CCC(=O)OC3)[C@H]3C[C@H]3[C@]45C)[C@@H](O)[C@@]2(O)OC1=O | Condition met |
| COC(=O)/C(C)=C1\C(=O)[C@H](O)[C@@]2(C)[C@@H]3C[C@@H]3[C@@]34CCC5=C6C3=C(C(=O)[C@H](O)[C@@]6(C)[C@@H]3C[C@H]53)[C@](C)(C(=O)OC)[C@@H]1[C@@]24O | Condition met |
| CC(=N)NCCCC[C@H](N)C(=O)O [L-NIL] | Condition not met |

Prompt line: For this molecule, is viability at 48 h, 50 µM lower than 70%? COC(=O)/C(C)=C1\C(=O)[C@H](O)[C@]2(C)C3=C(C[C@@H]4[C@]5(OC(=O)C6=C5C[C@H]5[C@](O)(COC(=O)/C=C(\C)COC(=O)CCC(=O)OC6)[C@H]6C[C@H]6[C@]45C)[C@H]31)[C@H]1C[C@H]12 [SHIZUKAOL F]
Response line: Condition met

====

# protocol_summary: Cytotoxicity against mouse RAW264.7 cells assessed as cellular metabolic activity at 50 uM after 48 hrs by MTT assay relative to control
# Assay type: ADME, cell-based
# stated_conditions: read-out: Activity
value_type: viability at 48 h, 50 µM (%)
One number for each entry, in %.

| compound | viability at 48 h, 50 µM, % |
| --- | --- |
| COC(=O)/C(C)=C1/C(=O)[C@H](O)[C@]2(C)C3=C(C[C@@H]4[C@]5(OC(=O)C6=C5C[C@H]5[C@](O)(COC(=O)/C(C)=C/COC(=O)CCC(=O)OC6)[C@H]6C[C@H]6[C@]45C)[C@H]31)[C@H]1C[C@H]12 | 66.5 |
| COC(=O)CCC(=O)OCC1=C2C[C@H]3[C@](O)(COC(=O)/C=C(\C)CO)[C@H]4C[C@H]4[C@]3(C)[C@@H]3CC4=C5[C@H](/C(=C(\C)C(=O)OC)C(=O)[C@H](O)[C@@]5(C)[C@@H]5C[C@H]45)[C@]23OC1=O | 71.5 |
| COC(=O)/C(C)=C1\C(=O)[C@H](O)[C@]2(C)C3=C(C[C@@H]4[C@]5(OC(=O)C6=C5C[C@H]5[C@](O)(COC(=O)/C(C)=C/COC(=O)CCC(=O)OC6)[C@H]6C[C@H]6[C@]45C)[C@H]31)[C@H]1C[C@H]12 [SHIZUKAOL B] | 55.4 |

Prompt line: Fill blank: measured viability at 48 h, 50 µM of the compound "COC(=O)/C(C)=C1\C(=O)[C@H](O)[C@]2(C)C3=C(C[C@@H]4[C@]5(OC(=O)C(CO)=C5C[C@H]5[C@H](COC(C)=O)[C@H]6C[C@H]6[C@]45C)[C@H]31)[C@H]1C[C@H]12" is ____.
Response line: 97
